The origin of these recorded values is PubChem BioAssay.

assay_text: inhibitors of TNFa-induced NFkB p65 translocation, primary screen, imaging, HUVEC, MLSMR starter and 10KST1 sets (AID 438);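 also: compound added about 3h40 before a 20 min TNFalpha stimulation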;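 as to inhibition: signal is the nuclear over cytoplasmic p65 intensity ratio per well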
experimental_conditions: HUVEC TNFa-induced p65 nuclear translocation; at 2 µM, stronger effect = higher value, 0% TNFa-plus-vehicle, 100% no-TNFa wells
property_name: inhibition (%)
Entry rule: numbers only, all in %.

Form: molecule = `CCN(C1CCCCC1)S(=O)(=O)c1ccc(S(=O)(=O)N2CCN(CCC#N)CC2)cc1` ; inhibition = 3.3

Form: molecule = COc1cccc(C2C(C(=O)c3ccc(C)o3)=C(O)C(=O)N2CCCN(C)C)c1 (stereo not drawn) ; inhibition = -10.9

Form: molecule = `O=C(O)CCCC(=O)Nc1nc(-c2ccc(F)cc2)cs1` ; inhibition = -1.3

====

assay_text: endothelial E-selectin expression blockers – imaging, HUVEC, immunofluorescence, MLSMR starter and 10KST1 sets, primary screen (AID 487);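 also: signal is fraction of cell area covered by stained E-selectin grains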
experimental_conditions: HUVEC TNFalpha-induced E-selectin immunofluorescence imaging, at 2 µM; stronger effect = higher value
Class definitions on inhibition: band A = under -90%, band B = from -90% up to -20%, band C = -20% and over

[ask] Band of `COc1ccc(CN(CC(=O)NCc2ccco2)C(=O)CCC(=O)Nc2nccs2)cc1` ?
[reply] band B

[ask] Band of `Cc1ccc2cc(CCNC(=O)C(C)C)c(=O)[nH]c2c1C` ?
[reply] band B

[ask] Band of `Cc1cccc(NC(=O)Cn2c(=O)n(C)c3ccccc32)c1` ?
[reply] band C

[ask] Band of CCN1CCN(C(=O)C2CC(c3ccc(F)cc3)=NO2)CC1 (configuration not stated) ?
[reply] band C

[ask] Band of `CCN(CC)CCNC(=O)c1ccc(N2CCCCC2)c(NS(=O)(=O)c2ccc(C)cc2)c1` ?
[reply] band C

[ask] Band of `O=C(Cn1ncc2c(=O)oc3ccccc3c21)NCCCN1CCCC1=O` ?
[reply] band B

[ask] Band of Cc1ccc(C2C(C(=O)c3sc(C)nc3C)=C(O)C(=O)N2CCN(C)C)o1 (configuration not stated) ?
[reply] band A

[ask] Band of `COc1ccc(C(=O)CN2C3=NCCCN3c3ccccc32)cc1OC` ?
[reply] band C

[ask] Band of `O=C(CSc1nc(-c2ccccc2)cs1)NC(=O)NCc1ccco1` ?
[reply] band A

[ask] Band of `Cc1cccc(-c2cc3nc4c(c(N5CCC6(CC5)OCCO6)n3n2)CCCC4)c1` ?
[reply] band A

[ask] Band of `O=C(c1cc2cc(Cl)cc(Cl)c2oc1=O)N1CCOCC1` ?
[reply] band B

====

Please respond with reported inhibition for every item in the list.
assay_text: endothelial E-selectin expression blockers – imaging, HUVEC, immunofluorescence, MLSMR starter and 10KST1 sets, primary screen (AID 487);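 also: signal is fraction of cell area covered by stained E-selectin grains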
experimental_conditions: HUVEC TNFalpha-induced E-selectin immunofluorescence imaging, at 2 µM; stronger effect = higher value
Calls of active or inactive are those of the source.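 How the source made its calls: active means visually confirmed hit in the image check and inhibition above 20%; inconclusive means visually confirmed hit but inhibition not above 20%; inactive means no visual hit in the image check.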

Form: compound = `Cc1cc(C)cc(NC(=O)CSc2nnc(Cc3cccn3C)n2-c2ccc(F)cc2)c1` ; inhibition = 39.4% (inactive)

Form: compound = COP(C)(=O)c1c(C)nn(-c2ccccc2)c1C (stereo not drawn) ; inhibition = -11.2% (inactive)

Form: compound = `Cc1ccc(C(C)C)c(OCCn2c(=O)oc3ccccc32)c1` ; inhibition = -32.5% (inactive)

Form: compound = O=C(CSc1oc(-c2ccco2)nc1S(=O)(=O)c1ccccc1)NCC1CCCO1 (stereo not drawn) ; inhibition = -95% (inactive)

Form: compound = `COC(=O)c1ccc(Cl)c(NC(C)=O)c1` ; inhibition = -48.4% (inactive)

Form: compound = `CCCCn1c(NCCC)nc2c1c(=O)[nH]c(=O)n2C` ; inhibition = -38% (inactive)

Form: compound = `O=C(OCC#CCSc1nc2ccccc2s1)c1ccco1` ; inhibition = -28.5% (inactive)

Form: compound = Cc1cc(NC(=O)CSc2nc3c(c(=O)n2Cc2ccccc2)SC(C)C3)no1 (stereo not drawn) ; inhibition = 15.8% (inactive)

Form: compound = `CC1CCN(CCn2c(=S)[nH]c3ncccc3c2=O)CC1` ; inhibition = -9.3% (inactive)

Form: compound = COc1cc2c(cc1OC)C(c1cccnc1)CC(=O)N2 (stereo not drawn) ; inhibition = -30.8% (inactive)

Form: compound = `O=C(NCc1cccnc1)c1ccc2c(c1)OCO2` ; inhibition = 4.1% (inactive)

Form: compound = `O=C(CCCC(=O)OCC(=O)NC1CCCC1)Nc1ccccn1` ; inhibition = -130% (inactive)

Form: compound = COc1cc2c(cc1OC)C(C)N(C(=O)Cn1ncc3c1-c1ccccc1OC3)CC2 (stereo not drawn) ; inhibition = -39.6% (inactive)

Form: compound = `Cn1c(=O)cc(NCCc2ccccc2)[nH]c1=O` ; inhibition = -199% (inactive)

Form: compound = CC(=O)NC(Cc1ccccc1)C(=O)NC1CCN(C(=O)c2cnccn2)CC1 (stereo not drawn) ; inhibition = -54.3% (inactive)

Form: compound = `COc1ccc(S(=O)(=O)N2CCOCC2)cc1C(=O)Nc1cc(C)on1` ; inhibition = 38.6% (inactive)

Form: compound = C=CCn1c(SCC(=O)NCC2CCCO2)nc2scc(-c3ccco3)c2c1=O (stereo not drawn) ; inhibition = 28.1% (inactive)

Form: compound = `C=CCn1c(N)c(C(=O)NCCC2=CCCCC2)sc1=S` ; inhibition = 4% (inactive)

====

assay_text: inhibitors of TNFa-induced NFkB p65 translocation, primary screen, imaging, HUVEC, MLSMR starter and 10KST1 sets (AID 438);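 also: compound added about 3h40 before a 20 min TNFalpha stimulation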;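 as to inhibition: signal is the nuclear over cytoplasmic p65 intensity ratio per well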
experimental_conditions: HUVEC TNFa-induced p65 nuclear translocation; at 2 µM, stronger effect = higher value, 0% TNFa-plus-vehicle, 100% no-TNFa wells
property_name: inhibition (%)
Entry rule: numbers only, all in %.

Form: compound = `Cc1cccc(-c2cc3nc4c(c(N5CCC6(CC5)OCCO6)n3n2)CCCC4)c1` ; inhibition = -5.5

Form: compound = `O=S(=O)(c1cccc2nsnc12)N1CCN(c2ncccn2)CC1` ; inhibition = -15.2

Form: compound = Cc1ccc(S(=O)(=O)Cn2nnnc2C(C(C)C)N2CCN(C(=O)c3ccco3)CC2)cc1 (centres undefined) ; inhibition = -0.4

Form: compound = `COC(=O)CCC(=O)Nc1ccc(S(=O)(=O)N2CCCCCC2)cc1` ; inhibition = 16.7

Form: compound = `O=c1c2c(-c3ccccc3)csc2nc2n1CCC2` ; inhibition = -18.3

Form: compound = `Cn1c(=O)[nH]c(=O)c2c1nc(NCCCn1ccnc1)n2Cc1cccc(Br)c1` ; inhibition = -12.9

Form: compound = CCCS(=O)(=O)N1CCCC(C(=O)NC(C)c2ccc3c(c2)OCCO3)C1 (centres undefined) ; inhibition = -10.9

Form: compound = `CCOC(=O)c1cc2sccc2n1Cc1ccccc1` ; inhibition = 7.3

Form: compound = `CCC(=O)OCCn1c(=O)c2cc3c(=O)n(CCOC(=O)CC)c(=O)c3cc2c1=O` ; inhibition = 0

Form: compound = `Cc1ccc(Br)cc1S(=O)(=O)N1CCN(c2ccccc2)CC1` ; inhibition = -2.2

Form: compound = `COc1cccc(-c2nc(CS(=O)(=O)CC(=O)N3CCN(c4ccccn4)CC3)c(C)o2)c1` ; inhibition = -4.4

Form: compound = `COC(=O)c1cc2oc(C)cc2n1CC(=O)Nc1ccc(C)c(C)c1` ; inhibition = 9.1

Form: compound = CC(=O)NC(Cc1cc(C)ccc1C)C(=O)N1CCN(C(=O)Nc2ccc(C(C)=O)cc2)CC1 (centres undefined) ; inhibition = -2.1

Form: compound = CCN(CCO)C(=O)CC(c1ccccc1)c1cc(Br)ccc1O (centres undefined) ; inhibition = 15

Form: compound = `CCOc1ccc2nc(SCC(=O)N3CCCCCC3)c(C#N)cc2c1` ; inhibition = 9.1

Form: compound = `c1ccc(Oc2ccc(-n3cnnn3)cc2)cc1` ; inhibition = 1.5

Form: compound = `O=C(OCc1ccccc1F)c1ccc2c(c1)OCCO2` ; inhibition = 3.4

Form: compound = `COc1ccc(OC)c(CNC(=O)COc2cc(=O)n(C)c3ccccc23)c1` ; inhibition = 4.3

Form: compound = `O=C(CSCCSCC(=O)c1ccco1)c1ccco1` ; inhibition = -6.1

====

assay_text: inhibitors of TNFa-induced NFkB p65 translocation, primary screen, imaging, HUVEC, MLSMR starter and 10KST1 sets (AID 438);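 also: compound added about 3h40 before a 20 min TNFalpha stimulation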
experimental_conditions: HUVEC TNFa-induced p65 nuclear translocation; measured here: nuclei count (cytotoxicity indicator), at 2.08 µM
Please respond with reported cell count for every item in the list.
Number, no unit, nothing else.

Form: compound = `O=C(NCCCN1CCOCC1)c1cc(-c2ccc(O)cc2)on1` ; cell count = 614

Form: compound = `O=C(CCSc1nc(-c2ccco2)cc(C(F)(F)F)n1)Nc1ccc2c(c1)OCO2` ; cell count = 429

Form: compound = `CCOc1ccccc1C(=O)Nc1nnc(CC)s1` ; cell count = 537

Form: compound = `Cc1onc(-c2c(Cl)cccc2Cl)c1C(=O)N1CCc2ccccc21` ; cell count = 696

Form: compound = Cc1ccc(NC(=O)C2CCCN2S(=O)(=O)c2cccc3cccnc23)cc1F (centres undefined) ; cell count = 577

Form: compound = `CC1(C)Cc2cccc(OCC(=O)O)c2O1` ; cell count = 635

Form: compound = `O=C(c1ccc(-c2ccccc2)cc1)N1CCC(C(=O)N2CCCC2)CC1` ; cell count = 237

Form: compound = `Cc1cc(NC(=O)CSc2nc3ccccc3n2CC(=O)N2CCCCC2)no1` ; cell count = 722

Form: compound = `Cc1cc(C)nc(SCC(=O)Nc2ccc(S(=O)(=O)Nc3nccs3)cc2)n1` ; cell count = 312

Form: compound = `O=C(Cn1c(-c2cncs2)nc2ccccc21)NC1CCCC1` ; cell count = 700

Form: compound = `COC(=O)c1cc2oc(C)cc2n1CC(=O)N(C)c1ccccc1` ; cell count = 370

Form: compound = `COc1ccc(NC(=O)CN(c2ccc(C(C)C)cc2)S(=O)(=O)c2c(C)noc2C)cc1OC` ; cell count = 787

Form: compound = CCN(CC)C(=O)C1CCCc2c1[nH]c1ccc(Cl)cc21 (centres undefined) ; cell count = 674

Form: compound = CC(=O)c1ccc(OCC(O)CN2CCN(CCO)CC2)cc1 (centres undefined) ; cell count = 605

Form: compound = `COc1ccccc1OCC(=O)NCC1CCCCC1` ; cell count = 394

Form: compound = `COc1ccc(C)cc1S(=O)(=O)N1CCN(S(=O)(=O)c2cc(C)ccc2OC)CC1` ; cell count = 427

Form: compound = `COc1ccccc1N(CC(=O)Nc1cccnc1)S(C)(=O)=O` ; cell count = 623

Form: compound = `CN(C)c1ccc(NC(=O)Cn2cc3c(n2)CCCC3)cc1` ; cell count = 757

Form: compound = CNC(=O)C1C2C=CC3(O2)C1C(=O)N(C1CC1)C3C(=O)NCc1ccc(OC)cc1 (centres undefined) ; cell count = 199

Form: compound = `O=C(c1ccc2nc(N3CCCCC3)sc2c1)N1CCN(c2ccccn2)CC1` ; cell count = 669

Form: compound = CC(OC(=O)C1CC=CCC1C(N)=O)C(Cl)=C(Cl)Cl (centres undefined) ; cell count = 326

Form: compound = `COc1ccc(-c2nc(C(N)=O)c3[nH]c(=O)n(-c4cccc(Cl)c4)c3n2)cc1OC` ; cell count = 743

Form: compound = `CN(C(=O)c1ccccn1)c1nnc(-c2cccnc2)s1` ; cell count = 622

Form: compound = COc1ccccc1C1CC(c2ccc(C)cc2)Nc2ncnn21 (centres undefined) ; cell count = 332

Form: compound = `O=C(Cn1nc(-c2ccc3c(c2)OCCO3)ccc1=O)Nc1ccc(N2CCOCC2)cc1` ; cell count = 270

Form: compound = Cc1c(C(=O)NC2CCCc3ccccc32)oc2ccc(S(=O)(=O)N3CCOCC3)cc12 (centres undefined) ; cell count = 500

Form: compound = `Cc1ccc(S(=O)(=O)N(CCO)c2cc3c(s2)CCCC3)cc1` ; cell count = 689

Form: compound = `O=C(Nc1ccc2c(c1)OCCO2)c1ccco1` ; cell count = 337

Form: compound = `CCCS(=O)(=O)N1CCC(C(=O)NCCN2CCCC2)CC1` ; cell count = 201

Form: compound = Cc1cc2cc(CN(CC3CCCO3)C(=O)c3cnccn3)c(=O)[nH]c2cc1C (centres undefined) ; cell count = 330

Form: compound = `Cc1ccc(Nc2nc(CSc3nnc(-c4cccs4)o3)cs2)cc1` ; cell count = 444

Form: compound = `CCOC(=O)CN1C(=O)C(=O)c2cccc(C)c21` ; cell count = 651

Form: compound = CC(C)CC1NC(=O)N(CC(=O)N2CCN(S(=O)(=O)c3ccc(Cl)cc3)CC2)C1=O (centres undefined) ; cell count = 716

Form: compound = `c1ccc(CN2C3=NCCCN3c3ccccc32)cc1` ; cell count = 361

Form: compound = `CSc1ccccc1N=CC1=C(O)CC(C)(C)CC1=O` ; cell count = 483

Form: compound = `Cc1ccc(O)c(-c2cc3ccccc3[nH]2)c1` ; cell count = 616

Form: compound = CC(=O)Nc1ccc(NC(=O)Cn2cc3c(n2)CCC(C)C3)cc1 (centres undefined) ; cell count = 549

Form: compound = `CCCCCn1c(CCNC(=O)CCC)nc2ccccc21` ; cell count = 635

Form: compound = `CCOC(=O)C1CCN(C(=O)COc2ccc(Cl)cc2Cl)CC1` ; cell count = 705

Form: compound = O=C1C2ON(c3ccc(Cl)cc3)C(c3ccco3)C2C(=O)N1c1ccccc1 (centres undefined) ; cell count = 510

Form: compound = `c1ccc(CCNc2ccc3nncn3n2)cc1` ; cell count = 593

Form: compound = CCCCCOC(=O)C1=C(C)N(C)C(=O)NC1c1cc(Br)c(O)c(OC)c1 (centres undefined) ; cell count = 563

Form: compound = CCOC(=O)c1sc(N)c(C(=O)OCC)c1COC(=O)C1CC(=O)N(Cc2ccco2)C1 (centres undefined) ; cell count = 780

Form: compound = `CCN(CCCNS(=O)(=O)c1ccc2c(c1)oc(=O)n2C)c1cccc(C)c1` ; cell count = 740
